Hello, the source for this data is ChEMBL document CHEMBL4304834, in case you need it.

- system-under-test: 5-hydroxytryptamine receptor 2B (Homo sapiens, UniProt P41595)
- Sequence (P41595 whole entry): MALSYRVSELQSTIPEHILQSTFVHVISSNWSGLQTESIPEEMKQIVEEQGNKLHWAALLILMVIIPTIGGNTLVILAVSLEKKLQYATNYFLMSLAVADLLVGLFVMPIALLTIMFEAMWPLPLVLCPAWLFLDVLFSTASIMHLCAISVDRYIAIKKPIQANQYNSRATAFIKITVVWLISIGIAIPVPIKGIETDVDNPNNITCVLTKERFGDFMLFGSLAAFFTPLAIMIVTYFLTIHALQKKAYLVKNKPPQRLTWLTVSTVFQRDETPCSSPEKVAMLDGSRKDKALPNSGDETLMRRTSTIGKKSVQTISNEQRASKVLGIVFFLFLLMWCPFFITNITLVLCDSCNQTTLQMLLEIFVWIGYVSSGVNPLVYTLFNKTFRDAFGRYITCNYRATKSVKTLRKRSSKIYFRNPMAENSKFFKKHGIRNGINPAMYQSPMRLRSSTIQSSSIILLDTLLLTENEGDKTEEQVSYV
- procedure-text: Displacement of [3H]-LSD from human recombinant 5-HT2B receptor stably expressed in HEK cells after 90 mins by microbeta scintillation counting method
- Assay type: cell-based
- condition-parameters: read-out: Ki
Give Ki for every item shown.
Answers are plain numbers, in nM.

| compound | Ki [nM] |
| --- | --- |
| CC[C@H]1c2c(ccc3ccccc23)OC[C@@]1(C)N (racemic) | 20 |

Task: Given the compound CC[C@H]1c2ccc3ccccc3c2OC[C@@]1(C)N (racemic) , what is its reported Ki?
Output: 3.5

* * *

Exercise: for every item that follows, state its recorded pKi.
- system-under-test: Sodium-dependent dopamine transporter (Homo sapiens)
- Sequence (Q01959 whole entry): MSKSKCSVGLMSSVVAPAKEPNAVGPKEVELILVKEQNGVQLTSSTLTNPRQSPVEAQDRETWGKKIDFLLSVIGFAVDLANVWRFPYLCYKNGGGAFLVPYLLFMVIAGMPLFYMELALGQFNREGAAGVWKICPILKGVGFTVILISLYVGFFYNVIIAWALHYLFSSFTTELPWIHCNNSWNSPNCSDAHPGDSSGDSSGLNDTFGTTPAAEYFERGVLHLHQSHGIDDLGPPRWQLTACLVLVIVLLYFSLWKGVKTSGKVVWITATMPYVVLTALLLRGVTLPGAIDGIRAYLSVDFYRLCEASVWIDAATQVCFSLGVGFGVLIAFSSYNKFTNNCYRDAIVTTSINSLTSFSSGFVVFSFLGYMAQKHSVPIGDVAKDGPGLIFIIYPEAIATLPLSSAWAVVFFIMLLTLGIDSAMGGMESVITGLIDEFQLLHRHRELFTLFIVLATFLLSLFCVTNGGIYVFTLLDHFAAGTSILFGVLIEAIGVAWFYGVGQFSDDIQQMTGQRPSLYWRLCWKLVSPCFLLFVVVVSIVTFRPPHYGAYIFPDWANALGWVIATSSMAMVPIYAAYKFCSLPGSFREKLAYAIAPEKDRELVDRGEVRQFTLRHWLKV
- procedure-text: Displacement of [3H]-Win35428 from human recombinant DAT receptor expressed in stable HEK cells after 90 mins by microbeta scintillation counting method
Answers are plain numbers, as −log10 of the molar value.

| molecule | readout-kind | number |
| --- | --- | --- |
| CC[C@H]1c2ccccc2N(c2ccccc2)C[C@@]1(C)N (racemic) | pKi | 5.50 |

Now look at this one.
Task: # pKi lookup, item CC[C@H]1c2cc(OC)ccc2CC[C@@]1(C)N (racemic)
Output: 5.30

* * *

Exercise: state measured log10 Ki for each of the compounds provided.
- system-under-test: 5-hydroxytryptamine receptor 2B (Homo sapiens, UniProt P41595)
- procedure-text: Displacement of [3H]-LSD from human recombinant 5-HT2B receptor stably expressed in HEK cells after 90 mins by microbeta scintillation counting method
- Type: cell-based
- condition-parameters: read-out: pKi (converted)
On a log10 scale: recorded Ki, unit nM.

Worked examples, 6 compounds total:
| compound | log10 Ki |
| --- | --- |
| C[C@@]12COc3c(Br)cccc3[C@@H]1CCN2 (racemic) | 1.30 |
| C[C@@]12COc3c(-c4ccccc4)cccc3[C@@H]1CCN2 (racemic) | 2.20 |
| COc1cc(OC)c2c(c1)OC[C@@]1(C)NCC[C@@H]21 (racemic) | 2.40 |
| C[C@@]12COc3cc(OCc4ccccc4)ccc3[C@@H]1CCN2 (racemic) | 2.10 |
| C[C@@]12CN(c3ccc(Br)cc3)c3ccc(Br)cc3[C@@H]1CCN2 (racemic) | 2.50 |
| CN1CC[C@H]2c3ccccc3N(c3ccccc3)C[C@]21C (racemic) | 2.30 |

Look at each compound and report its log10 Ki.
1. CC[C@H]1c2ccccc2N(c2ccccc2)C[C@@]1(C)N (racemic)
2. COc1ccc2c(c1)[C@@H]1CCN[C@]1(C)CO2 (racemic)
3. Cc1cc(C)c2c(c1)OC[C@@]1(C)NCC[C@@H]21 (racemic)
4. CC[C@H]1c2cc(OC)ccc2CC[C@@]1(C)N (racemic)
5. CC[C@H]1c2cc(OC)ccc2OC[C@@]1(C)N (racemic)
6. C[C@@]12COc3ccc(-c4ccccc4)cc3[C@@H]1CCN2 (racemic)

Output:
1. 2.90
2. 2.80
3. 1.90
4. 2.16
5. 2.40
6. 2.40

Hi there! I need log10 Ki for each item below, if you can.
1. CN1CC[C@H]2c3cccc(-c4ccccc4)c3OC[C@]21C (racemic)
2. CC[C@H]1c2cc(-c3ccccc3)ccc2OC[C@@]1(C)N (racemic)
3. CC[C@H]1c2cc(C)ccc2OC[C@@]1(C)N (racemic)
4. CC(=O)N1CC[C@H]2c3cccc(-c4ccccc4)c3OC[C@]21C (racemic)
5. CN1CC[C@H]2c3ccc(O)cc3OC[C@]21C (racemic)
6. Cc1ccc(N2C[C@@]3(C)NCC[C@H]3c3cc(C)ccc32)cc1 (racemic)

Output:
2.40
2.10
2.25
2.70
3.00
2.50

* * *

- system-under-test: 5-hydroxytryptamine receptor 7 (Homo sapiens)
- Sequence (P34969 whole entry): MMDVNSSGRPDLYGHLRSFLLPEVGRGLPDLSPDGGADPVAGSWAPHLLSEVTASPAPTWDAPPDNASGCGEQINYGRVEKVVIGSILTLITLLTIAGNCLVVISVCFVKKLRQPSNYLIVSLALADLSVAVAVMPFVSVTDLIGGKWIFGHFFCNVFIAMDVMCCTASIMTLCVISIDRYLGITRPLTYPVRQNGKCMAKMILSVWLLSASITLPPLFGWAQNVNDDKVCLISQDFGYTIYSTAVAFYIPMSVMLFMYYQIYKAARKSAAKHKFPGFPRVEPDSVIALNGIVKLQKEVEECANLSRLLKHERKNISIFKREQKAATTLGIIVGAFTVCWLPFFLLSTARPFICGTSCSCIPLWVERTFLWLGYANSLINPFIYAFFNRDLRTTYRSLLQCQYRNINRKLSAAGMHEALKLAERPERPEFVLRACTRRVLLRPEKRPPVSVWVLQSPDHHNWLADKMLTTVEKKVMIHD
- procedure-text: Displacement of [3H]-LSD from human recombinant 5-HT7 receptor expressed in stable HEK cells after 90 mins by microbeta scintillation counting method
- Assay type: cell-based
- condition-parameters: read-out: pKi (converted)
readout-kind: log10(Ki) (log10 of the value in nM)
# log10 transformed; quantity=Ki; unit=nM

| compound | log10(Ki) |
| --- | --- |
| CC[C@H]1c2c(ccc3ccccc23)OC[C@@]1(C)N (racemic) | 2.84 |
| CN1CC[C@H]2c3ccccc3N(c3ccccc3)C[C@]21C (racemic) | 0.43 |
| C[C@@]12COc3c(Br)cccc3[C@@H]1CCN2 (racemic) | 2.60 |
| CC[C@H]1c2ccccc2N(c2ccccc2)C[C@@]1(C)N (racemic) | 3.00 |
| Cc1ccc(N2C[C@@]3(C)NCC[C@H]3c3cc(C)ccc32)cc1 (racemic) | 2.30 |

I need log10(Ki) for every entry listed below, if you could help.
1. C[C@@]12CN(c3ccc(Br)cc3)c3ccc(Br)cc3[C@@H]1CCN2 (racemic)
2. Cc1cc(C)c2c(c1)OC[C@@]1(C)NCC[C@@H]21 (racemic)

Output:
[2.30, 3.10]

Task: Can you share its log10(Ki)? I mean this compound: COc1cc(OC)c2c(c1)OC[C@@]1(C)NCC[C@@H]21 (racemic)
Output: 3.10

* * *

- system-under-test: Sodium-dependent noradrenaline transporter (Homo sapiens, UniProt P23975)
- Sequence (P23975 whole entry): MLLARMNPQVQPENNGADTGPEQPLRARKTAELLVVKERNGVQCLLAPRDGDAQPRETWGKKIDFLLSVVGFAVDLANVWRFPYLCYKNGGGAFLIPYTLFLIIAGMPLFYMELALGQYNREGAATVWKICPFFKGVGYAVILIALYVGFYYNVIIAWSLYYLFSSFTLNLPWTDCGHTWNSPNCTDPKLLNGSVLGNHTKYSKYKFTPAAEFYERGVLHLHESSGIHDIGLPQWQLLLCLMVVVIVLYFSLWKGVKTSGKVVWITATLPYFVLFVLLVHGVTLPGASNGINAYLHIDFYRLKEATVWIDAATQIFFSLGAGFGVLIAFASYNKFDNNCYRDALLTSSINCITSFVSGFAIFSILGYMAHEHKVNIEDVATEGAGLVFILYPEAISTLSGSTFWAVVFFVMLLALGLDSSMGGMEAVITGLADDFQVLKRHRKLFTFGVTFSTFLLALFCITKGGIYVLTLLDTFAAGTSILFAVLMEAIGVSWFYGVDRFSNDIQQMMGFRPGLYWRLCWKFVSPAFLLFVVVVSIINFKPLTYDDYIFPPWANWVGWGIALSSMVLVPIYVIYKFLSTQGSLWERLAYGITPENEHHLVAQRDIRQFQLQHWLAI
- procedure-text: Displacement of [3H]-Nisoxetine from human recombinant NET receptor expressed in stable HEK cells after 90 mins by microbeta scintillation counting method
readout-kind: pKi
One number for each entry, as −log10 of the molar value.

# count of solved cases: 3
| compound | system-under-test | pKi |
| --- | --- | --- |
| CC[C@H]1c2cc(C)ccc2OC[C@@]1(C)N (racemic) | Sodium-dependent noradrenaline transporter (Homo sapiens, UniProt P23975) | 6.50 |
| CC[C@H]1c2ccccc2N(c2ccccc2)C[C@@]1(C)N (racemic) | Sodium-dependent noradrenaline transporter (Homo sapiens, UniProt P23975) | 6.40 |
| CC[C@H]1c2cc(OC)ccc2CC[C@@]1(C)N (racemic) | Sodium-dependent noradrenaline transporter (Homo sapiens, UniProt P23975) | 5.60 |

Task: Given C[C@@]12CN(c3ccccc3)c3ccccc3[C@@H]1CCN2 (racemic) , state its recorded pKi.
Output: 5.80

* * *

- system-under-test: UniProt:P35462
- Sequence (P35462 whole entry): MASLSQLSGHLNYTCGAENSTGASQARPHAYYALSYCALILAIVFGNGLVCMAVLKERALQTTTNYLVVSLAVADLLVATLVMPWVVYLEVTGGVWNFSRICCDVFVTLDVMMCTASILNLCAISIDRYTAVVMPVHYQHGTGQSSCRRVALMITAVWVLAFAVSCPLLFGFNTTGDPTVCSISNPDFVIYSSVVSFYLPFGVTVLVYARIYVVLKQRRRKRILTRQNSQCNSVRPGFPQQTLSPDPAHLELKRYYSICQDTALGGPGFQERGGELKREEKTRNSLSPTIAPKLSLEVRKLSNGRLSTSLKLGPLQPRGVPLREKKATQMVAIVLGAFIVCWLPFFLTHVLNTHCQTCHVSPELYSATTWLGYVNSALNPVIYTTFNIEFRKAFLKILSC
- procedure-text: Displacement of [3H]-N-methylspiperone from human recombinant dopamine D3 receptor expressed in HEKT cells after 90 mins by microbeta scintillation counting method
For each entry below, report its Ki value.

Check out these entries, answers already filled in.
| compound | system-under-test | Ki |
| --- | --- | --- |
| CC[C@H]1c2cc(OC)ccc2CC[C@@]1(C)N (racemic) | UniProt:P35462 | > 10 µM |
| COc1cc(OC)c2c(c1)OC[C@@]1(C)NCC[C@@H]21 (racemic) | UniProt:P35462 | > 10 µM |

Let's switch to this compound now.
Task: Which Ki is listed for CC[C@H]1c2cc(C)ccc2OC[C@@]1(C)N (racemic) ?
Output: > 10 µM

* * *

For each of the compounds below, state its pKi.
- system-under-test: Histamine H3 receptor (Homo sapiens, UniProt Q9Y5N1)
- Sequence (Q9Y5N1 whole entry): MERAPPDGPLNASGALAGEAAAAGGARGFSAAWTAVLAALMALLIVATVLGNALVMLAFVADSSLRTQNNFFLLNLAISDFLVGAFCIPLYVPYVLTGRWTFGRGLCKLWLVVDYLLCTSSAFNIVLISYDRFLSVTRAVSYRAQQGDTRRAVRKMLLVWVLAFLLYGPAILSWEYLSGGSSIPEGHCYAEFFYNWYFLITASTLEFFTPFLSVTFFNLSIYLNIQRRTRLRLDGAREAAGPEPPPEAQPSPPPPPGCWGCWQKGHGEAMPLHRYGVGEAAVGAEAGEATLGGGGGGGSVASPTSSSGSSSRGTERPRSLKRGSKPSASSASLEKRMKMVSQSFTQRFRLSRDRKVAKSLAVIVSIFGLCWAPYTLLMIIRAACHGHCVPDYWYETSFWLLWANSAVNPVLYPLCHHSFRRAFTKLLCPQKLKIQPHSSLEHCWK
- procedure-text: Displacement of [3H]-alpha-methylhistamine from human recombinant histamine H3 receptor expressed in Flp-In HEK cells after 90 mins by microbeta scintillation counting method
pKi: −log10 of the molar value.

Worked set:
| compound | result |
| --- | --- |
| CC[C@H]1c2cc(C)ccc2OC[C@@]1(C)N (racemic) | < 5.00 |
| CC[C@H]1c2ccccc2N(c2ccccc2)C[C@@]1(C)N (racemic) | 5.40 |

Consider now this further compound.
Task: Look up pKi for this compound: CC[C@H]1c2cc(OC)ccc2CC[C@@]1(C)N (racemic)
Output: < 5.00

* * *

- system-under-test: 5-hydroxytryptamine receptor 2C (Homo sapiens)
- Sequence (P28335 whole entry): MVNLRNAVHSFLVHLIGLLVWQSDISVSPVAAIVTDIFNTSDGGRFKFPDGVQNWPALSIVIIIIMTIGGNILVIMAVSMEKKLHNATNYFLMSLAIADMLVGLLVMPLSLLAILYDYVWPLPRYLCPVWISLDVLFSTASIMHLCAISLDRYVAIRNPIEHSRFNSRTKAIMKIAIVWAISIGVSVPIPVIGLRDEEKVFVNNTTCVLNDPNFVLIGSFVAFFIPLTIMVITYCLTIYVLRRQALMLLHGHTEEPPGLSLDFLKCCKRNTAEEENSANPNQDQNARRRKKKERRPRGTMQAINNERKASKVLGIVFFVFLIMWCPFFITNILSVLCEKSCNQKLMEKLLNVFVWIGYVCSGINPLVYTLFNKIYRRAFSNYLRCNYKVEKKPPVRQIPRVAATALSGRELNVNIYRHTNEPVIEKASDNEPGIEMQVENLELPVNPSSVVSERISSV
- procedure-text: Displacement of [3H]-Mesulergine from human recombinant 5-HT2C receptor expressed in HEKT cells after 90 mins by microbeta scintillation counting method
readout-kind: pKi
Give bare numbers, as −log10 of the molar value.

Example entries begin here.
| molecule | pKi |
| --- | --- |
| CC[C@H]1c2cc(OC)ccc2CC[C@@]1(C)N (racemic) | 5.60 |
| CC[C@H]1c2cc(C)ccc2OC[C@@]1(C)N (racemic) | 5.60 |
| CC[C@H]1c2ccccc2N(c2ccccc2)C[C@@]1(C)N (racemic) | 5.40 |

Would you kindly look at the next entry?
Task: Fill blank: measured pKi of the molecule COc1cc(OC)c2c(c1)OC[C@@]1(C)NCC[C@@H]21 (racemic) is ____.
Output: 5.80

* * *

- system-under-test: UniProt P08908
- Sequence (P08908 whole entry): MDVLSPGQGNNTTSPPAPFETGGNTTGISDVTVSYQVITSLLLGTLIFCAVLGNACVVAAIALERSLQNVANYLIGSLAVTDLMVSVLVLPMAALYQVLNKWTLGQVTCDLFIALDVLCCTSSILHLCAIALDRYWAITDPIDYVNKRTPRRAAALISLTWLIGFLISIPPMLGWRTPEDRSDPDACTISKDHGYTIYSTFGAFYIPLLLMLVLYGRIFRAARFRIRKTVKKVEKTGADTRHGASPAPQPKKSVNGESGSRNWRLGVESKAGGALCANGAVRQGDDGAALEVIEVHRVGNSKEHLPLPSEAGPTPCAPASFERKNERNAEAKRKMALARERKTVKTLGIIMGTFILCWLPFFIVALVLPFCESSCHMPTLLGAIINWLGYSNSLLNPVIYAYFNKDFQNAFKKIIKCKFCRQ
- procedure-text: Displacement of [3H]-Way100635 from human recombinant 5-HT1A expressed in stable CHO cells after 90 mins by microbeta scintillation counting method
- Assay type: cell-based
- condition-parameters: read-out: Ki
readout-kind: pKi
Numbers only, as −log10 of the molar value.

Task: What pKi value was documented for this compound, CC[C@H]1c2ccccc2N(c2ccccc2)C[C@@]1(C)N (racemic) ?
Output: 7.13
